pEC50 by entry:
target: T1, ROR1 extracellular segment with Kringle domain removed on CHO cells (human, UniProt Q01973 30-472, limits assumed); test: FACS, CHO-ROR1 (with Kringle domain removed) cells
T1 construct: Transfected into CHO cells; also called CHO-ROR1 (with Kringle domain removed)
T1 sequence (Q01973 other isoform, or with tags, fused parts or gaps limits assumed): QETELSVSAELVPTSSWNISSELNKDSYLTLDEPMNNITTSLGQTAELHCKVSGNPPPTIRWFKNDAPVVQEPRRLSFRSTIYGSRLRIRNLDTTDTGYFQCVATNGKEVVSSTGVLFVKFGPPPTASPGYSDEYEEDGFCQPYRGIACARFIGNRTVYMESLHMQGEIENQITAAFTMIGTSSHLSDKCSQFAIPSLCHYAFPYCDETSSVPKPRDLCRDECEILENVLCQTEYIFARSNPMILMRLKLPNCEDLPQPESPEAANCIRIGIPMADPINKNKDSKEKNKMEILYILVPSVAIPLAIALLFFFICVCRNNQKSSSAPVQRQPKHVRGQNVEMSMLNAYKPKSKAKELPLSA
Convention used: pEC50 is expressed as -log10 of the molar concentration.

pEC50 reading for mAb006c (antibody, V domains shown, Human-mouse chimeric) VH: EVQLQQSGPELVKPGASLKMSCKASGYTFPDYNIHWVKQSHGKSLEWIGYINPNNGGTTYNQKFKGKATLTVSKSSSTAYMELRSLTSEDSAVYSCARRGYGSSYAMDYWAQGTSVTVSS VL: DVLMTQSPLSLPVSLGDQASISCRSSHIIVHTNGNTYLEWYLQKPGQSPKLLIYKVSNRFSGVPDRFSGSGSGTDFTLKISRVEAEDLGVYYCFQGSRVPYTFGGGTKLEIK : 8.80
